Measured pIC50 accompanies every entry in the list below.
system: CPS1 (Homo sapiens, UniProt P31327)
Construct: The full length, human CPS1 gene was cloned into pFastBac HTA; His6 (from the pFastBac HTA vector); made in house; host or cells: SF21 insect cells (baculovirus, Bac-to-bac)
Sequence (P31327 39-1500): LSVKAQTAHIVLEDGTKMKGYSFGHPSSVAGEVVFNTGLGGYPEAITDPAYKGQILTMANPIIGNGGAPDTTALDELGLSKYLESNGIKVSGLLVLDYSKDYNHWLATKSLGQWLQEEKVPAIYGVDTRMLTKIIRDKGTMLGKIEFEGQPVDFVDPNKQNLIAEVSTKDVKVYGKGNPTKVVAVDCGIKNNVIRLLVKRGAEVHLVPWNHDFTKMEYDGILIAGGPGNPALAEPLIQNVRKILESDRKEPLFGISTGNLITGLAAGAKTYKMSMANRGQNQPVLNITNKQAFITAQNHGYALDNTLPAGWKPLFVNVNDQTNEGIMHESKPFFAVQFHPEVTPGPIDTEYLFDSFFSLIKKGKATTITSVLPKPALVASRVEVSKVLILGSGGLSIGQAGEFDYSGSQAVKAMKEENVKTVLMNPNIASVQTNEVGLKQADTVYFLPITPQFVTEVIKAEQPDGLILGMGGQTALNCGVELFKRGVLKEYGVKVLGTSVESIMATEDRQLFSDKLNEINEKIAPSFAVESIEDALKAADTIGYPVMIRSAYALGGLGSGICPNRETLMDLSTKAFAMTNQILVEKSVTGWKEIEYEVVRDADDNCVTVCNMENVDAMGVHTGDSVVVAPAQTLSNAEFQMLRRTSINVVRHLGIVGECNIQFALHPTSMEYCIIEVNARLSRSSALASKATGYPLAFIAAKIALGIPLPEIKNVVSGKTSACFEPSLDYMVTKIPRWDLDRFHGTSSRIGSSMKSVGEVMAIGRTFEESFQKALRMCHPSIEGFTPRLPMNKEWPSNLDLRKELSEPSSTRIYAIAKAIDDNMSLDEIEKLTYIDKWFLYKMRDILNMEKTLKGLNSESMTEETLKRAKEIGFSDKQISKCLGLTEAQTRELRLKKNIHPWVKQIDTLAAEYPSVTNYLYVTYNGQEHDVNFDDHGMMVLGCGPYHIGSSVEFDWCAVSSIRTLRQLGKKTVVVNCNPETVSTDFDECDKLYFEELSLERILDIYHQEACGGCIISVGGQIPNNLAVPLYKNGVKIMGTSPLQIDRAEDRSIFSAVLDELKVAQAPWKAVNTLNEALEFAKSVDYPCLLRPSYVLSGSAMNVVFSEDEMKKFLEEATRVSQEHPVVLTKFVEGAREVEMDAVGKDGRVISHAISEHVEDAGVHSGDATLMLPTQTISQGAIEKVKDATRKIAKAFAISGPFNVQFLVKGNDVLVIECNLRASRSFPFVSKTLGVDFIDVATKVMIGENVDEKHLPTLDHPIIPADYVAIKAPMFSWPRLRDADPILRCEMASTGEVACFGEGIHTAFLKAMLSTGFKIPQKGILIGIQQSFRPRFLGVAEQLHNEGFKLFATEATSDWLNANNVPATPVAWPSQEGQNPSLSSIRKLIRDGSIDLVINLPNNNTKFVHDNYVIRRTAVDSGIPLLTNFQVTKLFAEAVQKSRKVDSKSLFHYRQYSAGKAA
experimental.details: ADP-Glo endpoint assay measuring the ATPase activity of CPS1
Type: biochemical
protocol.conditions: geometric mean of a minimum of two values; 50 nM CPS1, 10 μM ATP, 0.2 mM NAG, 60 min at room temperature; read-out: ADPGlo IC50
Protocol: CPS1 was expressed and purified from SF21 insect cells. The full length, human CPS1 gene was cloned into pFastBac HTA and baculovirus was generated using the Bac-to-bac expression system from Invitrogen. […] CPS1 activity was measured and compounds profiled in an endpoint assay measuring the ATPase activity of CPS1 using the ADP-Glo kit from Promega. […] 3 μL of kinase detection reagent was then added and luminescent signal measured on an Envision plate reader after 30 min.
pIC50: −log10 of the molar value.

COc1ccc(C(=O)N2[C@H](C)CN(C(=O)c3cccc(OC)c3F)C[C@H]2C)c(F)c1 | < 4.18
COc1ccc(C(=O)N2[C@H](C)CN(C(=O)c3cc(OC)c(OC)cc3F)C[C@H]2C)c(F)c1 | < 4.18

Moving on to the next molecule.
Tell me its pIC50 given `COc1ccc(C(=O)N2[C@H](C)CN(C(=O)c3c[nH]c4ccc(O)cc34)C[C@H]2C)c(F)c1` as the entry.
< 4.18
